Provenance of the data: patent US6395913B1

List of Distribution Coefficients Water values.
Experiment: Extraction affinity of water-immiscible solvents: distribution coefficients against a standard water/3-buten-1,2-diol/epoxybutene solution
Format: physicochemical
Conditions: 1 part solvent : 1 part standard water-diol-epoxybutene solution, room temperature
Procedure: This example compares the extraction affinity of various water-immiscible solvents for epoxybutene in the presence of aqueous absorbent mixtures, as occurs in the extraction zone of both embodiments of this invention. […] The aqueous and organic layers from the decantation were analyzed by gas chromatography to determine the composition of each layer. From these compositions, distribution coefficients were calculated for epoxybutene, water, diol, and the candidate extractant as follows: [formula]

{"compound": "C1CCCCC1", "Distribution Coefficients Water": 0.001}
{"compound": "CC(C)C(=O)OCC(C)(C)C(OC(=O)C(C)C)C(C)C (stereo not shown)", "Distribution Coefficients Water": 0.012}
{"compound": "CCCCCCC", "Distribution Coefficients Water": 0.001}
{"compound": "CCCCCCCCCC", "Distribution Coefficients Water": 0.000}
{"compound": "CCCCOC(=O)CC [Butyl Propionate]", "Distribution Coefficients Water": 0.042}
{"compound": "Cc1cccc(C)c1", "Distribution Coefficients Water": 0.002}
{"compound": "CC(=O)OCCC(C)C [Isopentyl Acetate]", "Distribution Coefficients Water": 0.073}
{"compound": "Cc1ccc(C)cc1", "Distribution Coefficients Water": 0.002}
{"compound": "COC(=O)c1ccccc1 [Methyl Benzoate]", "Distribution Coefficients Water": 0.076}
{"compound": "c1ccc2c(c1)CCCC2 [1,2,3,4-Tetrahydronaphthalene]", "Distribution Coefficients Water": 0.010}
{"compound": "CC(C)COC(=O)C(C)C [Isobutyl isobutyrate]", "Distribution Coefficients Water": 0.022}
{"compound": "CC(C)c1cccc(C(C)C)c1", "Distribution Coefficients Water": 0.001}
{"compound": "Cc1cccc2ccccc12", "Distribution Coefficients Water": 0.002}

====

Test: Extraction affinity of water-immiscible solvents: distribution coefficients against a standard water/3-buten-1,2-diol/epoxybutene solution
Format: physicochemical
Conditions: 1 part solvent : 1 part standard water-diol-epoxybutene solution, room temperature; diol = 3-buten-1,2-diol
Label criterion met for high-side Distribution Coefficients Diol (at or above 0.005) and criterion not met for low-side Distribution Coefficients Diol (below it).

{"compound": "C1CCCCC1", "classification": "criterion not met"}
{"compound": "c1ccc2c(c1)CCCC2 [1,2,3,4-Tetrahydronaphthalene]", "classification": "criterion met"}
{"compound": "Clc1ccccc1Cl", "classification": "criterion met"}
{"compound": "COC(=O)c1ccccc1 [Methyl Benzoate]", "classification": "criterion met"}
{"compound": "CC(C)C(=O)OCC(C)(C)C(OC(=O)C(C)C)C(C)C (stereo not drawn)", "classification": "criterion met"}
{"compound": "C=C(C)[C@H]1CC=C(C)CC1", "classification": "criterion not met"}
{"compound": "CC(C)c1cccc(C(C)C)c1", "classification": "criterion not met"}

====

Assay: Extraction affinity of water-immiscible solvents: distribution coefficients against a standard water/3-buten-1,2-diol/epoxybutene solution
Format: physicochemical
Conditions: 1 part solvent : 1 part standard water-diol-epoxybutene solution, room temperature
Parameter class (string): assigned from measured Distribution Coefficients Solvent. Ranges: bottom range = under 30, center range = from 30 up to 200, top range = 200 and over

{"compound": "C1CCCCC1", "classification": "top range"}
{"compound": "Cc1cccc2ccccc12", "classification": "center range"}
{"compound": "CCCCOC(=O)CC [Butyl Propionate]", "classification": "bottom range"}
{"compound": "CC(C)c1cccc(C(C)C)c1", "classification": "top range"}
{"compound": "CC(C)COC(=O)C(C)C [Isobutyl isobutyrate]", "classification": "center range"}
{"compound": "C=C(C)[C@H]1CC=C(C)CC1", "classification": "top range"}
{"compound": "ClC(Cl)Cl [Chloroform]", "classification": "bottom range"}
{"compound": "COC(=O)c1ccccc1 [Methyl Benzoate]", "classification": "bottom range"}
{"compound": "Clc1ccccc1Cl", "classification": "center range"}
{"compound": "c1ccc2c(c1)CCCC2 [1,2,3,4-Tetrahydronaphthalene]", "classification": "center range"}
{"compound": "CCCCCCCCCC", "classification": "top range"}
{"compound": "CC(=O)OCCC(C)C [Isopentyl Acetate]", "classification": "bottom range"}
